Would you mind telling me the reported ACT of each entry?
Target: Melanocortin receptor 4 (Homo sapiens, UniProt P32245)
Sequence (P32245 whole entry): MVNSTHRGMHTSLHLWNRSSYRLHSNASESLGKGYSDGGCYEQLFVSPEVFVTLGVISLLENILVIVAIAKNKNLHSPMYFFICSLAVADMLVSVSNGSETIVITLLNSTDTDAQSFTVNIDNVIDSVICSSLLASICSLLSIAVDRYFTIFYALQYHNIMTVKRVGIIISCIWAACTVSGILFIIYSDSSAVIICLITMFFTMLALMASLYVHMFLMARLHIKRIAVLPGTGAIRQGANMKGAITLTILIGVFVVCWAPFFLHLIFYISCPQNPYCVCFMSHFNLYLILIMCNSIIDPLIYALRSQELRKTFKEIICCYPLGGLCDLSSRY
Assay: Stimulation of intracellular cAMP levels in CHO cells expressing human Melanocortin-4 receptor
Assay type: functional, cell-based
Field: numeric (%). Do not append units.

ACT for N=C(N)NCCC[C@@H]1NC(=O)[C@@H](Cc2ccc3ccccc3c2)NC(=O)[C@H](Cc2c[nH]cn2)NC(=O)CCCC(=O)NCCCC[C@H](C(N)=O)NC(=O)[C@@H](Cc2c[nH]c3ccccc23)NC1=O is 22.8

// recorded ACT for C[C@H]1NC(=O)[C@H](Cc2c[nH]cn2)NC(=O)CCC(=O)NCCCC[C@H](C(N)=O)NC(=O)[C@@H](Cc2c[nH]c3ccccc23)NC(=O)[C@H](CCCN=C(N)N)NC1=O : 0

Form field ACT, entry N=C(N)NCCC[C@@H]1NC(=O)[C@@H](Cc2ccccc2)NC(=O)[C@H](Cc2c[nH]cn2)NC(=O)c2ccccc2C(=O)NCCCC[C@H](C(N)=O)NC(=O)[C@@H](Cc2c[nH]c3ccccc23)NC1=O : 98

Lab book: ACT of C[C@@H]1NC(=O)[C@@H](Cc2ccccc2)NC(=O)[C@H](Cc2c[nH]cn2)NC(=O)CCC(=O)NCCCC[C@H](C(N)=O)NC(=O)[C@@H](Cc2c[nH]c3ccccc23)NC1=O noted as 0

Record N=C(N)NCCC[C@@H]1NC(=O)[C@@H](Cc2ccc3ccccc3c2)NC(=O)[C@H](Cc2c[nH]cn2)NC(=O)CCC(=O)NCCCC[C@H](C(N)=O)NC(=O)[C@@H](Cc2c[nH]c3ccccc23)NC1=O . Reported ACT: 35

Lab book: ACT of N=C(N)NCCC[C@@H]1NC(=O)[C@@H](Cc2ccccc2)NC(=O)[C@H](Cc2c[nH]cn2)NC(=O)CCCC(=O)NCCCC[C@H](C(N)=O)NC(=O)[C@@H](Cc2c[nH]c3ccccc23)NC1=O noted as 100

So, N=C(N)NCCC[C@@H]1NC(=O)[C@@H](Cc2ccc3ccccc3c2)NC(=O)[C@H](Cc2c[nH]cn2)NC(=O)c2ccccc2C(=O)NCCCC[C@H](C(N)=O)NC(=O)[C@@H](Cc2c[nH]c3ccccc23)NC1=O ? Its ACT was 0

ACT reading for C[C@@H]1NC(=O)CCC(=O)NCCCC[C@H](C(N)=O)NC(=O)[C@@H](Cc2c[nH]c3ccccc23)NC(=O)[C@H](CCCN=C(N)N)NC(=O)[C@@H](Cc2ccccc2)NC1=O : 35

Reported ACT for N=C(N)NCCC[C@H]1NC(=O)[C@H](Cc2ccccc2)NC(=O)[C@H]2CCCN2C(=O)CCC(=O)NCCCC[C@@H](C(N)=O)NC(=O)[C@H](Cc2c[nH]c3ccccc23)NC1=O was 60.5

Kindly note the recorded ACT for NCCCC[C@H](NC(=O)[C@H](Cc1c[nH]c2ccccc12)NC(=O)[C@H](CCCN=C(N)N)NC(=O)[C@@H](Cc1ccccc1)NC(=O)[C@H](Cc1c[nH]cn1)NC(=O)CCC(=O)O)C(N)=O , which is 26.5

Documented ACT of N=C(N)NCCC[C@@H]1NC(=O)[C@@H](Cc2ccccc2)NC(=O)[C@H](Cc2c[nH]cn2)NC(=O)CCC(=O)NCCCC[C@H](C(N)=O)NC(=O)[C@@H](Cc2c[nH]c3ccccc23)NC1=O : 100

###

Biological target: Melanocortin receptor 3 (Homo sapiens)
Experiment: Inhibition of human Melanocortin-3 receptor (hMC3R) expressed in HEK293 cells
Type: cell-based
metric.name: pEC50
Bear in mind: pEC50 is minus log10 of a mol/L concentration; give just that figure.

The molecule listed as N=C(N)NCCC[C@@H]1NC(=O)[C@@H](Cc2ccccc2)NC(=O)[C@H](Cc2cnc[nH]2)NC(=O)c2ccccc2C(=O)NCCCC[C@@H](C(N)=O)NC(=O)[C@H](Cc2c[nH]c3ccccc23)NC1=O has a reported pEC50 of 7.89

Per the record, C[C@@H]1NC(=O)[C@@H](Cc2ccccc2)NC(=O)[C@H](Cc2cnc[nH]2)NC(=O)CCC(=O)NCCCC[C@@H](C(N)=O)NC(=O)[C@H](Cc2c[nH]c3ccccc23)NC1=O has pEC50 of 6.00

Memo: C[C@@H]1NC(=O)CCC(=O)NCCCC[C@@H](C(N)=O)NC(=O)[C@H](Cc2c[nH]c3ccccc23)NC(=O)[C@H](CCCN=C(N)N)NC(=O)[C@@H](Cc2ccccc2)NC1=O , reported pEC50: 7.38

###

Target: Melanocortin receptor 5 (Homo sapiens, UniProt P33032)
Sequence (P33032 whole entry): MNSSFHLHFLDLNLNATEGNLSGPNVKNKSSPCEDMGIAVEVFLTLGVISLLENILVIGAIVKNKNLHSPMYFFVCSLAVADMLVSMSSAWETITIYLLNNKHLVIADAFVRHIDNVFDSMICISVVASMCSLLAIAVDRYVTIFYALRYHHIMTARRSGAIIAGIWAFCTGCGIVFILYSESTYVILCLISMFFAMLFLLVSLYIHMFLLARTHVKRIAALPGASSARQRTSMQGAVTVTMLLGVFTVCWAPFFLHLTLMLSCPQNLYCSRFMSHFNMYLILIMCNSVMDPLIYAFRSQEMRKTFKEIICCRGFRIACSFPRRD
Assay: Stimulation of intracellular cAMP levels in HEK293 cells expressing human melanocortin 5 receptor
Field: ACT. Provide a value for each of the compounds that follow.
Just the number in %, nothing appended.

# ACT measured on Melanocortin receptor 5 (Homo sapiens, UniProt P33032) for item C[C@@H]1NC(=O)[C@@H](Cc2ccccc2)NC(=O)[C@H](Cc2c[nH]cn2)NC(=O)CCC(=O)NCCCC[C@H](C(N)=O)NC(=O)[C@@H](Cc2c[nH]c3ccccc23)NC1=O = 0

Item C[C@H]1NC(=O)[C@H](Cc2c[nH]cn2)NC(=O)CCC(=O)NCCCC[C@H](C(N)=O)NC(=O)[C@@H](Cc2c[nH]c3ccccc23)NC(=O)[C@H](CCCN=C(N)N)NC1=O was tested on Melanocortin receptor 5 (Homo sapiens, UniProt P33032); the reported ACT is 0

Reported Melanocortin receptor 5 (Homo sapiens, UniProt P33032) ACT for item C[C@@H]1NC(=O)CCC(=O)NCCCC[C@H](C(N)=O)NC(=O)[C@@H](Cc2c[nH]c3ccccc23)NC(=O)[C@H](CCCN=C(N)N)NC(=O)[C@@H](Cc2ccccc2)NC1=O was 0

Measured ACT for this entry N=C(N)NCCC[C@@H]1NC(=O)[C@@H](Cc2ccccc2)NC(=O)[C@H](Cc2c[nH]cn2)NC(=O)CCCC(=O)NCCCC[C@H](C(N)=O)NC(=O)[C@@H](Cc2c[nH]c3ccccc23)NC1=O on Melanocortin receptor 5 (Homo sapiens, UniProt P33032): 0

Reported ACT (Melanocortin receptor 5 (Homo sapiens, UniProt P33032)) for entry N=C(N)NCCC[C@@H]1NC(=O)[C@@H](Cc2ccc3ccccc3c2)NC(=O)[C@H](Cc2c[nH]cn2)NC(=O)CCCC(=O)NCCCC[C@H](C(N)=O)NC(=O)[C@@H](Cc2c[nH]c3ccccc23)NC1=O is 81

###

Biological target: Melanocortin receptor 3 (Homo sapiens, UniProt P41968)
Sequence (P41968 whole entry): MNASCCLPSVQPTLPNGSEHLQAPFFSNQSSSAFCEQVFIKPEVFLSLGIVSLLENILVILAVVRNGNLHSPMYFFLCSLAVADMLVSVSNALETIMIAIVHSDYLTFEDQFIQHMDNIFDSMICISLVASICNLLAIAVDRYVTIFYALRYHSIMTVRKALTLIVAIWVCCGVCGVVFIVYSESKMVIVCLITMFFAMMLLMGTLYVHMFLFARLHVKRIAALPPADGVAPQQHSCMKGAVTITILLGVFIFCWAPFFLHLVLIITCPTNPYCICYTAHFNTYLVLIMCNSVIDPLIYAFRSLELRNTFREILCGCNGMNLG
Test: Inhibition of human Melanocortin-3 receptor (hMC3R) expressed in HEK293 cells
Assay type: cell-based
Details: hek293
metric.name: pEC50
// scale note: pEC50 = -log10(conc_M); give the bare number

Per the records, this compound ( N=C(N)NCCC[C@@H]1NC(=O)[C@@H](Cc2ccccc2)NC(=O)[C@@H]2CCCN2C(=O)CCC(=O)NCCCC[C@@H](C(N)=O)NC(=O)[C@H](Cc2c[nH]c3ccccc23)NC1=O ) has pEC50 equal to 6.10

###

Molecular target: Melanocortin receptor 4 (Homo sapiens, UniProt P32245)
metric.name: pKi
Keep it numeric: pKi is minus log10 of the concentration in mol/L.

compound N=C(N)NCCC[C@@H]1NC(=O)[C@@H](Cc2ccccc2)NC(=O)[C@H](Cc2cnc[nH]2)NC(=O)c2ccccc2C(=O)NCCCC[C@@H](C(N)=O)NC(=O)[C@H](Cc2c[nH]c3ccccc23)NC1=O , pKi observed: 7.24

pKi reading for N=C(N)NCCC[C@@H]1NC(=O)[C@@H](Cc2ccccc2)NC(=O)[C@H](Cc2c[nH]cn2)NC(=O)CCCC(=O)NCCCC[C@@H](C(N)=O)NC(=O)[C@H](Cc2c[nH]c3ccccc23)NC1=O : 6.17

So, N=C(N)NCCC[C@@H]1NC(=O)[C@@H](Cc2ccc3ccccc3c2)NC(=O)[C@H](Cc2cnc[nH]2)NC(=O)CCCC(=O)NCCCC[C@@H](C(N)=O)NC(=O)[C@H](Cc2c[nH]c3ccccc23)NC1=O ? Its pKi was 6.66

###

Molecular target: UniProt P32245
Assay: Inhibition of binding to human Melanocortin-4 receptor (hMC4R)
# note: boundary value 70 nM maps to no; EC50 below it maps to yes

Q) Answer whether the compound N=C(N)NCCC[C@H](NC(=O)[C@@H](Cc1ccccc1)NC(=O)[C@H](Cc1cnc[nH]1)NC(=O)CCC(=O)O)C(=O)N[C@@H](Cc1c[nH]c2ccccc12)C(=O)N[C@@H](CCCCN)C(N)=O has EC50 strictly less than 70 nM
A) no

Q) Is it true that EC50 reported for C[C@@H]1NC(=O)[C@@H](Cc2ccccc2)NC(=O)[C@H](Cc2cnc[nH]2)NC(=O)CCC(=O)NCCCC[C@@H](C(N)=O)NC(=O)[C@H](Cc2c[nH]c3ccccc23)NC1=O is less than 70 nM?
A) no

Q) Does N=C(N)NCCC[C@@H]1NC(=O)[C@@H](Cc2ccccc2)NC(=O)[C@H](Cc2c[nH]cn2)NC(=O)CCC(=O)NCCCC[C@@H](C(N)=O)NC(=O)[C@H](Cc2c[nH]c3ccccc23)NC1=O have EC50 strictly under 70 nM?
A) yes

Q) Check if EC50 falls below 70 nM for N=C(N)NCCC[C@@H]1NC(=O)[C@@H](Cc2ccc3ccccc3c2)NC(=O)[C@H](Cc2c[nH]cn2)NC(=O)CCC(=O)NCCCC[C@@H](C(N)=O)NC(=O)[C@H](Cc2c[nH]c3ccccc23)NC1=O .
A) no

Q) Given the entry N=C(N)NCCC[C@@H]1NC(=O)[C@@H](Cc2ccc3ccccc3c2)NC(=O)[C@H](Cc2cnc[nH]2)NC(=O)CCCC(=O)NCCCC[C@@H](C(N)=O)NC(=O)[C@H](Cc2c[nH]c3ccccc23)NC1=O , would its reported EC50 be below 70 nM?
A) no
